Test: qHTS drug screen for cell cycle checkpoint inhibitors in PARPi-resistant BRCA-mutant ovarian cancer cell lines. (AID 1963452)
Conditions: PEO1/OlaR viability, CellTiter-Glo luminescence, 96 h; measured here: PEO1 parental Z-AUC; stronger effect = lower value
Reported property: Z-AUC
Respond numerically, and do not add a unit to the figure.

Examples with their reported Z-AUC follow.
CC[C@@]1([C@@H]2O[C@@H]([C@H]3O[C@@](O)(CO)[C@H](C)C[C@@H]3C)C[C@@H]2C)CC[C@H]([C@]2(C)CCC3(C[C@H](O)[C@@H](C)[C@@H]([C@@H](C)[C@@H](OC)[C@H](C)C(=O)O)O3)O2)O1 (some centres not stated) = -0.753
O=C(Nc1ccc(-c2ccnc(Nc3ccc(N4CCOCC4)cc3)n2)cc1)[C@@H]1CCCN1 = 0.455
C/C(O)=C(\C#N)C(=O)Nc1ccc(C(F)(F)F)cc1 = 0.703

stdin: Output Z-AUC of CC(C)(O)C1CCC(Nc2ccc3ncc(-c4cccc(C(F)(F)F)c4)n3n2)CC1 (configuration not stated)
stdout: -1.03

stdin: Output Z-AUC of "CONC(=O)c1ccccc1Nc1cc(Nc2cc(C)nn2C(C)C)ncc1Cl"
stdout: 0.188

stdin: Output Z-AUC of "NC(=O)c1cccc2[nH]c(-c3ccc([C@@H]4CCCN4)cc3F)nc12"
stdout: -1.03

stdin: Output Z-AUC of "CN(C)CCCOc1ccc(-c2ccc3ncc4c(c3c2)n(C2CCOCC2)c(=O)n4C)cn1"
stdout: -1.35
